Each recorded value in this set is attributed to paper PMC6875038.

Experiment: Stability of the ginsenosides in rat plasma (QC samples)
Format: in vitro ADME
Conditions: rat plasma, low QC (7.2 Rb1, 3.2 Rb2, 2.4 Rd, 5.0 Re ng/mL); three freeze-thaw cycles at −80°C
A collection of molecules and their measured Recovery (%) Freeze-thaw cycles
Give the value in % but do not write % after it.

MOLECULE	OUTPUT UNIT	Recovery (%) Freeze-thaw cycles
CC(C)=CCC[C@](C)(O[C@@H]1O[C@H](CO[C@@H]2O[C@H](CO)[C@@H](O)[C@H](O)[C@H]2O)[C@@H](O)[C@H](O)[C@H]1O)[C@H]1CC[C@]2(C)[C@@H]1[C@H](O)C[C@@H]1[C@@]3(C)CC[C@H](O[C@@H]4O[C@H](CO)[C@@H](O)[C@H](O)[C@H]4O[C@@H]4O[C@H](CO)[C@@H](O)[C@H](O)[C@H]4O)C(C)(C)[C@@H]3CC[C@]12C [Rb1]	%	97.66
CC(C)=CCC[C@](C)(O[C@@H]1O[C@H](CO)[C@@H](O)[C@H](O)[C@H]1O)[C@H]1CC[C@]2(C)[C@@H]1[C@H](O)C[C@@H]1[C@@]3(C)CC[C@H](O)C(C)(C)[C@@H]3[C@@H](O[C@@H]3O[C@H](CO)[C@@H](O)[C@H](O)[C@H]3O[C@@H]3O[C@@H](C)[C@H](O)[C@@H](O)[C@H]3O)C[C@]12C [Re]	%	104.07
CC(C)=CCC[C@](C)(O[C@@H]1O[C@H](CO)[C@@H](O)[C@H](O)[C@H]1O)[C@H]1CC[C@]2(C)[C@@H]1[C@H](O)C[C@@H]1[C@@]3(C)CC[C@H](O[C@@H]4O[C@H](CO)[C@@H](O)[C@H](O)[C@H]4O[C@@H]4O[C@H](CO)[C@@H](O)[C@H](O)[C@H]4O)C(C)(C)[C@@H]3CC[C@]12C [Rd]	%	97.24

Sample CC(C)=CCC[C@](C)(O[C@@H]1O[C@H](CO[C@@H]2OC[C@H](O)[C@H](O)[C@H]2O)[C@@H](O)[C@H](O)[C@H]1O)[C@H]1CC[C@]2(C)[C@@H]1[C@H](O)C[C@@H]1[C@@]3(C)CC[C@H](O[C@@H]4O[C@H](CO)[C@@H](O)[C@H](O)[C@H]4O[C@@H]4O[C@H](CO)[C@@H](O)[C@H](O)[C@H]4O)C(C)(C)[C@@H]3CC[C@]12C [Rb2] ; Recovery (%) Freeze-thaw cycles observed: 94.21

* * *

A collection of compounds and their measured Tmax
Experiment: Pharmacokinetics of four ginsenosides in rat plasma after oral administration of PQ-AG and PQ extracts (UPLC-MS/MS)
Type: in vivo
Conditions: PQ group: oral PQ extract 0.54 g/kg, male SD rats, n = 6, mean ± SD
Give the value in h but do not write h after it.

TEST SMILES	OUTPUT UNIT	Tmax
CC(C)=CCC[C@](C)(O[C@@H]1O[C@H](CO[C@@H]2O[C@H](CO)[C@@H](O)[C@H](O)[C@H]2O)[C@@H](O)[C@H](O)[C@H]1O)[C@H]1CC[C@]2(C)[C@@H]1[C@H](O)C[C@@H]1[C@@]3(C)CC[C@H](O[C@@H]4O[C@H](CO)[C@@H](O)[C@H](O)[C@H]4O[C@@H]4O[C@H](CO)[C@@H](O)[C@H](O)[C@H]4O)C(C)(C)[C@@H]3CC[C@]12C	h	7
CC(C)=CCC[C@](C)(O[C@@H]1O[C@H](CO)[C@@H](O)[C@H](O)[C@H]1O)[C@H]1CC[C@]2(C)[C@@H]1[C@H](O)C[C@@H]1[C@@]3(C)CC[C@H](O[C@@H]4O[C@H](CO)[C@@H](O)[C@H](O)[C@H]4O[C@@H]4O[C@H](CO)[C@@H](O)[C@H](O)[C@H]4O)C(C)(C)[C@@H]3CC[C@]12C	h	7.67
CC(C)=CCC[C@](C)(O[C@@H]1O[C@H](CO)[C@@H](O)[C@H](O)[C@H]1O)[C@H]1CC[C@]2(C)[C@@H]1[C@H](O)C[C@@H]1[C@@]3(C)CC[C@H](O)C(C)(C)[C@@H]3[C@@H](O[C@@H]3O[C@H](CO)[C@@H](O)[C@H](O)[C@H]3O[C@@H]3O[C@@H](C)[C@H](O)[C@@H](O)[C@H]3O)C[C@]12C	h	1.08

Continue with the compound presented below.
Sample CC(C)=CCC[C@](C)(O[C@@H]1O[C@H](CO[C@@H]2OC[C@H](O)[C@H](O)[C@H]2O)[C@@H](O)[C@H](O)[C@H]1O)[C@H]1CC[C@]2(C)[C@@H]1[C@H](O)C[C@@H]1[C@@]3(C)CC[C@H](O[C@@H]4O[C@H](CO)[C@@H](O)[C@H](O)[C@H]4O[C@@H]4O[C@H](CO)[C@@H](O)[C@H](O)[C@H]4O)C(C)(C)[C@@H]3CC[C@]12C ; Tmax observed: 7.67
